- MEASURED_ON: T1, extracellular domain of rhesus monkey BCMA (rhesus monkey, UniProt F7FFA0 1-53)
- T1 construct: extracellular domain; also called RhBCMA
- TEST_DETAILS: Octet BLI; Fab 200 nM
Each entry below carries its reported Kd.
Could you write the number and then its unit?

Entry AB200-R1H32-R2Vk41 (Fab, V domains shown) VH: QVQLVQSGAEVKKPGSSVKVSCKASGGTFSNYWMHWVRQAPGQGLEWMGATYRSHSDTYYNQKFKSRVTITADKSTSTAYMELSSLRSEDTAVYYCARGAIYHGYDVIDNWGQGTLVTVSS VL: DIQMTQSPSSLSASVGDRVTITCRASQSISSYINWYQQKPGKAPKLLIYATSNIQSGVPSRFSGSGSGTDFTLTISSLQPEDFATYYCQQFRRLPWTFGQGTKLEIKR : reported Kd = ?
4.26 nM

Do the same for AB200-R1H32-R2Vk31 (Fab, V domains shown) VH: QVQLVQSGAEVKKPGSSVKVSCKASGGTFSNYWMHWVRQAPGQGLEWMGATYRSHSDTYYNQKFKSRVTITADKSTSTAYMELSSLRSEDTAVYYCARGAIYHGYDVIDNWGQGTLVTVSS VL: DIQMTQSPSSLSASVGDRVTITCRASQSISSYLNWYQQKPGKAPKLLIYATSNLQIGVPSRFSGSGSGTDFTLTISSLQPEDFATYYCQQFRRLPWTFGQGTKLEIKR please
2.82 nM
